Overview of reported cell viability across a group of compounds:
# Tested on: HepG2
# MEASUREMENT_DESCRIPTION: cell viability relative to DMSO; higher = less toxic
# CONDITION_NOTES: 72 h; 10 nM
QUANTITY: cell viability (%)

{"CHEMICAL_SMILES": "CN1CCN(c2nc(C3=C(c4c[nH]c5ccccc45)C(=O)NC3=O)c3ccccc3n2)CC1", "TARGET": "HepG2", "RECORDED_RESULT": 107}
{"CHEMICAL_SMILES": "Cc1ccc(F)cc1C(=O)Nc1ccc(C(=O)N2Cc3cccn3Cc3ccccc32)c(Cl)c1", "TARGET": "HepG2", "RECORDED_RESULT": 108}
{"CHEMICAL_SMILES": "CC(C)NC(=O)COc1cccc(-c2nc(Nc3ccc4[nH]ncc4c3)c3ccccc3n2)c1", "TARGET": "HepG2", "RECORDED_RESULT": 96.8}
{"CHEMICAL_SMILES": "C#Cc1cccc2c1c(C(=O)c1ccc(Cn3c(C)nc4cnccc43)c(F)c1)cn2C(=O)N(C)C", "TARGET": "HepG2", "RECORDED_RESULT": 110}

* * *

# Test system: Caco-2
# MEASUREMENT_DESCRIPTION: drug sensitivity score (DSS) for viability; higher = more toxic; extreme values may be limits of the assay
# CONDITION_NOTES: 72 h
Cut-off 0.3 on drug sensitivity score, inclusive. At or above means y; below means n.

{"MOLECULE": "COC(=O)c1cc(OC)c2c(c1-c1c(C(=O)OC)cc(OC)c3c1OCO3)OCO2 [bifendate]", "TARGET": "Caco-2", "LABEL": "n"}
{"MOLECULE": "NC[C@@](O)(c1ccc(Cl)cc1)c1ccc(-c2cn[nH]c2)cc1", "TARGET": "Caco-2", "LABEL": "y"}
{"MOLECULE": "O=C(c1ccc(-c2ccc(Cl)cc2)o1)N(Cc1ccccn1)c1ccc(N2CCNCC2)cc1", "TARGET": "Caco-2", "LABEL": "y"}
{"MOLECULE": "O=C(O)/C=C1\\CCCc2ccccc2[C@H]1O (racemic)", "TARGET": "Caco-2", "LABEL": "n"}
{"MOLECULE": "O=C(O)CCC(=O)Nc1ccc(S(=O)(=O)Nc2nccs2)cc1", "TARGET": "Caco-2", "LABEL": "n"}
{"MOLECULE": "NCCCCCC(=O)O", "TARGET": "Caco-2", "LABEL": "n"}
{"MOLECULE": "Cc1c(Cn2c(C)nc3c(C(=O)O)cc(N4CCOCC4)cc32)cccc1C(F)(F)F", "TARGET": "Caco-2", "LABEL": "y"}
{"MOLECULE": "Nc1n[nH]c2nc3ccccc3nc12", "TARGET": "Caco-2", "LABEL": "n"}
{"MOLECULE": "NCC(CC(=O)O)c1ccc(Cl)cc1 (stereo unspecified)", "TARGET": "Caco-2", "LABEL": "n"}
{"MOLECULE": "C[C@@H](O)[C@H]1C(=O)N2C(C(=O)O)=C(S[C@@H]3CN[C@H](CNS(N)(=O)=O)C3)[C@H](C)[C@H]12", "TARGET": "Caco-2", "LABEL": "n"}

* * *

Overview of reported cell viability across a group of molecules:
# Test system: Calu-3
# MEASUREMENT_DESCRIPTION: cell viability relative to DMSO; higher = less toxic
# CONDITION_NOTES: 72 h; 10000 nM

{"MOLECULE": "CN1CCC(COc2cnc(-c3cccc(Cn4nc(-c5cccc(C#N)c5)ccc4=O)c3)nc2)CC1", "cell viability / %": 110}
{"MOLECULE": "CCN(CC)CCOC(=O)C(c1ccccc1)C1CCCCC1 (stereo not drawn)", "cell viability / %": 98}
{"MOLECULE": "c1ccc(C(NCCNC(c2ccccc2)c2ccccc2)c2ccccc2)cc1", "cell viability / %": 92.2}

* * *

# Test system: U2OS
# MEASUREMENT_DESCRIPTION: cell viability relative to DMSO; higher = less toxic
# CONDITION_NOTES: 72 h; 100 nM
Structures can show the parent of a compound that is named as a salt.
QUANTITY: cell viability (%)

{"COMPOUND": "CC(C)=CCC/C(C)=C/CC/C(C)=C/CC[C@]1(C)CCc2cc(O)cc(C)c2O1", "RECORDED_RESULT": 98.2}
{"COMPOUND": "CC1(C)CC[C@]2(NC(=O)C(C)(F)F)CC[C@]3(C)[C@H](C(=O)C=C4[C@@]5(C)C=C(C#N)C(=O)C(C)(C)[C@@H]5CC[C@]43C)[C@@H]2C1 [Omaveloxolone (RTA-408)]", "RECORDED_RESULT": 98.7}
{"COMPOUND": "CN(C)C(=O)COC(=O)Cc1ccc(OC(=O)c2ccc(NC(=N)N)cc2)cc1 [Camostat mesylate]", "RECORDED_RESULT": 97.4}
{"COMPOUND": "CCC(=O)OCN1C(=O)C=CC1=O", "RECORDED_RESULT": 102}
{"COMPOUND": "COc1cc(-n2c(=S)[nH]c3ccccc3c2=O)c(Cl)cc1Cl", "RECORDED_RESULT": 101}
{"COMPOUND": "NCC(CC(=O)O)c1ccc(Cl)cc1 (centres undefined)", "RECORDED_RESULT": 95.5}
{"COMPOUND": "NC[C@@](O)(c1ccc(Cl)cc1)c1ccc(-c2cn[nH]c2)cc1", "RECORDED_RESULT": 95.5}
{"COMPOUND": "CCCCCCCCCCCCCCCC[n+]1ccn(Cc2ccccc2)c1C", "RECORDED_RESULT": 95.9}
{"COMPOUND": "C=C1CC[C@H](O)C/C1=C/C=C1\\CCC[C@]2(C)[C@@H]([C@H](C)CCCC(C)(C)O)CC[C@@H]12", "RECORDED_RESULT": 105}
{"COMPOUND": "c1ccc(C(NCCNC(c2ccccc2)c2ccccc2)c2ccccc2)cc1", "RECORDED_RESULT": 96.7}
{"COMPOUND": "COc1ccc2nc3cc(Cl)ccc3c(Nc3cc(CN4CCCC4)c(O)c(CN4CCCC4)c3)c2n1", "RECORDED_RESULT": 97.2}
{"COMPOUND": "C=CC(=O)Nc1cccc(C)c1Nc1ncc2cc(-c3c(Cl)c(OC)cc(OC)c3Cl)ccc2n1", "RECORDED_RESULT": 97.4}
{"COMPOUND": "Cc1cc(NCCO)nc(-c2ccc(Br)cc2)n1", "RECORDED_RESULT": 99.7}
{"COMPOUND": "O=C(O)C1=CO[C@@H](O[C@@H]2O[C@H](CO)[C@@H](O)[C@H](O)[C@H]2O)[C@@H]2C(CO)=CC[C@H]12", "RECORDED_RESULT": 101}
{"COMPOUND": "CCn1c2ccccc2c2cc(Nc3ccnc(NCCCN4CCOCC4)n3)ccc21", "RECORDED_RESULT": 101}
{"COMPOUND": "CCCCCCCCCCC(O)C1C=CC2C(=O)N(c3ccccc3)C(=O)C2N1Nc1ccc([N+](=O)[O-])cc1 (centres undefined)", "RECORDED_RESULT": 95.5}
{"COMPOUND": "CNC(=O)c1cccc2cc(Oc3ccnc4cc(OCC5(N)CC5)c(OC)cc34)ccc12", "RECORDED_RESULT": 93.6}
{"COMPOUND": "CC(C)(C)[C@H]1CC[C@H](CC2=C(O)C(=O)c3ccccc3C2=O)CC1", "RECORDED_RESULT": 99.3}
{"COMPOUND": "C=CCN1CC[C@]23CCCC[C@H]2[C@H]1Cc1ccc(O)cc13", "RECORDED_RESULT": 97.3}

* * *

Overview of reported cell viability across a group of molecules:
# System: Calu-3
# MEASUREMENT_DESCRIPTION: cell viability relative to DMSO; higher = less toxic
# CONDITION_NOTES: 72 h; 1000 nM
Structures can show the parent of a compound that is named as a salt.

{"MOLECULE": "CN(C)C(=O)COC(=O)Cc1ccc(OC(=O)c2ccc(NC(=N)N)cc2)cc1 [Camostat mesylate]", "cell viability [%]": 91}
{"MOLECULE": "C[C@@H](N)[C@H]1CC[C@H](C(=O)Nc2ccncc2)CC1", "cell viability [%]": 114}
{"MOLECULE": "COc1ccccc1CC(=N)N1C[C@@H]2C(=O)CCC(c3ccccc3)(c3ccccc3)[C@@H]2C1", "cell viability [%]": 109}

src = the supplement of paper PMC13380429
